study_system: IGF1R (human) (UniProt P08069)
Sequence (P08069 whole entry, looked up): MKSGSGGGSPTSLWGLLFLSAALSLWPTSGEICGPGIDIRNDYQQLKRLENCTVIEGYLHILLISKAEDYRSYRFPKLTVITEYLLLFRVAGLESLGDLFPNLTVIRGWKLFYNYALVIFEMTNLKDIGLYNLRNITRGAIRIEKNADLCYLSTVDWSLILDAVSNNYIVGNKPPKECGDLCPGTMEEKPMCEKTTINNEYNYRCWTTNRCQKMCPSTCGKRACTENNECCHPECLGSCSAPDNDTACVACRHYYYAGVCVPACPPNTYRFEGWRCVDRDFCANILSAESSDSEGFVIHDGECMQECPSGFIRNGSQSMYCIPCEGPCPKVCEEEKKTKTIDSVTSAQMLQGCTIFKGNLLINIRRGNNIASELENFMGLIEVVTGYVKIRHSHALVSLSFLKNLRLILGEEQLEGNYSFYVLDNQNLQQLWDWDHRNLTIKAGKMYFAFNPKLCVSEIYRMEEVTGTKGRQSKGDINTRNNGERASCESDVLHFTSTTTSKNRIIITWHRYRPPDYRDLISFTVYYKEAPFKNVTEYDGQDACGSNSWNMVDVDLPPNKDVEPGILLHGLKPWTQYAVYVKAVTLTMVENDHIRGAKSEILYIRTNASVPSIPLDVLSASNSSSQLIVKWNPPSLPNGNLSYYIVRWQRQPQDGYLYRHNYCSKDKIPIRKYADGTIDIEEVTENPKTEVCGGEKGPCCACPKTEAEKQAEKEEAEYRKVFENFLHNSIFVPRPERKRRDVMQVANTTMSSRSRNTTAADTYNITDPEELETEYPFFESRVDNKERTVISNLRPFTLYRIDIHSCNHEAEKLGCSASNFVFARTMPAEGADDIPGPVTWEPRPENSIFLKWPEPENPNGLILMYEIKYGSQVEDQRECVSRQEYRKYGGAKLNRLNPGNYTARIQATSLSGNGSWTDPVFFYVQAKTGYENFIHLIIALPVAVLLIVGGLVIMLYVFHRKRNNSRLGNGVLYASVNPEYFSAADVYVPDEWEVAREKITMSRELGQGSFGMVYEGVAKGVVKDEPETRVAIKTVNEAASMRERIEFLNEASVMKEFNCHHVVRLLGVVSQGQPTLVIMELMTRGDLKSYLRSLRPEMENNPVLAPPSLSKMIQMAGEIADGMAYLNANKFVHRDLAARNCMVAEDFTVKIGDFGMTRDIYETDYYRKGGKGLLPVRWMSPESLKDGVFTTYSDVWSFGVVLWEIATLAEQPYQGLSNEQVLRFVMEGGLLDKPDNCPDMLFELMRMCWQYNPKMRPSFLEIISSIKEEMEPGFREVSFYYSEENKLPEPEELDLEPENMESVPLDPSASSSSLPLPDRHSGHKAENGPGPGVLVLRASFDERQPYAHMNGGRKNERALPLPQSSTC
protocol: radiometric filter-binding kinase assay, Kinase HotSpot
run_conditions: compound 0.5 µM; ATP 10 µM
Decision: residual activity compared against 90%; not below it gives criterion met, below it gives criterion not met.

structure_notation | assigned_label
O=c1cc(N2CCNCC2)oc2c(-c3ccccc3)cccc12 | criterion met
O=C1Nc2ccccc2/C1=C\c1c(Cl)[nH]c2ccccc12 | criterion met
Oc1ccc(-c2nc(-c3ccc(F)cc3)c(-c3ccncc3)[nH]2)cc1 | criterion met

Now for another entry.
[in] Determine whether measured residual activity meets or exceeds 90% for CCCNC(=O)Nc1ccc(Oc2ncnc3cc(OC)c(OC)cc23)cc1Cl
[out] criterion not met

Numbers sourced from the kinase profiling compilation of Christmann-Franck et al. (2016).
